These measurements were taken from DBAASP.

Each entry below carries its measured MIC, system: Klebsiella pneumoniae ATCC 13883.

| COMPOUND | MIC |
| --- | --- |
| CC[C@H](C)[C@H](NC(=O)[C@H](CCCN=C(N)N)NC(=O)[C@H](CCC(N)=O)NC(=O)[C@@H](NC(=O)[C@@H](NC(=O)[C@H](CCCN=C(N)N)NC(=O)[C@H](CCCCN)NC(C)=O)[C@@H](C)CC)C(C)C)C(=O)N[C@@H](CCCCN)C(=O)N[C@@H](CC(=O)O)C(=O)N[C@@H](Cc1ccccc1)C(=O)N[C@@H](CC(C)C)C(=O)N[C@@H](CCCN=C(N)N)C(N)=O [KRIVQRIKDFLR] | ≥ 163 µM |

Challenge: Fill in: MIC of CC[C@H](C)[C@H](NC(=O)[C@H](CC(C)C)NC(=O)[C@@H]1CCCN1C(=O)[C@H](CC(C)C)NC(=O)[C@@H](N)Cc1ccccc1)C(=O)N[C@@H](CC(C)C)C(=O)N[C@@H](Cc1ccccc1)C(=O)N[C@@H](Cc1c[nH]c2ccccc12)C(=O)N[C@H](C(=O)N[C@H](C(=O)N[C@H](C(=O)N[C@@H](C)C(=O)N[C@@H](CC(C)C)C(N)=O)[C@@H](C)O)C(C)C)[C@@H](C)CC [FLPLILFWIVTAL] is ___
Response given: ≥ 388 µM

Challenge: Need MIC, item CC[C@H](C)[C@H](NC(=O)[C@H](CCCN=C(N)N)NC(=O)[C@H](CO)NC(=O)[C@H](CC(C)C)NC(=O)[C@H](Cc1ccccc1)NC(=O)[C@H](CO)NC(=O)[C@@H](N)Cc1ccccc1)C(=O)N[C@@H](Cc1ccccc1)C(N)=O [FSFLSRIF]
Response given: ≥ 100 µM

Challenge: Given the entry CC(C)C[C@H](NC(=O)[C@H](CO)NC(=O)[C@H](CCCN=C(N)N)NC(=O)[C@H](CCCCN)NC(=O)[C@@H](NC(=O)[C@@H](NC(=O)CNC(=O)[C@H](CCCN=C(N)N)NC(=O)[C@H](Cc1cnc[nH]1)NC(=O)[C@H](Cc1c[nH]c2ccccc12)NC(=O)[C@H](Cc1ccccc1)NC(=O)[C@H](Cc1cnc[nH]1)NC(=O)[C@H](Cc1ccc(O)cc1)NC(=O)[C@@H](N)Cc1ccc(O)cc1)C(C)C)[C@@H](C)O)C(=O)O [YYHFWHRGVTKRSL] , report its measured MIC.
Response given: ≥ 70 µM

Challenge: Look up MIC: CC[C@H](C)[C@H](NC(=O)[C@@H](NC(=O)[C@@H]1CCCN1C(=O)[C@H](CC(C)C)NC(=O)[C@@H](NC(=O)[C@@H](N)CO)[C@@H](C)CC)[C@@H](C)O)C(=O)N[C@H](C(=O)N[C@@H](CO)C(=O)N[C@@H](Cc1ccccc1)C(=O)N[C@@H](CC(C)C)C(=O)N[C@@H](CO)C(=O)N[C@@H](CCCCN)C(=O)N[C@H](C(=O)N[C@@H](Cc1ccccc1)C(N)=O)C(C)C)C(C)C [SILPTIVSFLSKVF]
Response given: ≥ 50 µM
